system: Moraxella catarrhalis; experiment: Antibacterial activity against erythromycin-susceptible Moraxella catarrhalis 13L332 assessed as reduction in microbial growth by CLSI based two-fold broth dilution method; format: functional
ENDPOINT_NAME: MIC (µg/mL)
I only need the number, in µg/mL, no unit after it.

Known MIC results, listed for orientation:
[
  {
    "COMPOUND_STRUCTURE": "CC[C@H]1OC(=O)[C@@](C)(F)C(=O)[C@H](C)[C@@H](O[C@@H]2O[C@H](C)C[C@H](N(C)C)[C@H]2O)[C@](C)(OC/C=C/c2ccc3c(c2)c(=O)c(C(N)=O)cn3CC)C[C@@H](C)/C(=N\\OC)[C@H](C)[C@H]2OC(=O)O[C@@]21C",
    "TARGET_OR_TEST_SYSTEM": "Moraxella catarrhalis",
    "ENDPOINT_NAME": "MIC",
    "UNIT_SYMBOL": "µg/mL",
    "REPORTED_VALUE": 0.5
  },
  {
    "COMPOUND_STRUCTURE": "CC[C@H]1OC(=O)[C@@](C)(F)C(=O)[C@H](C)[C@@H](O[C@@H]2O[C@H](C)C[C@H](N(C)C)[C@H]2O)[C@](C)(OC)C[C@@H](C)/C(=N\\OCC#Cc2ccc3c(c2)c(=O)c(C(N)=O)cn3C2CC2)[C@H](C)[C@H]2OC(=O)O[C@@]21C",
    "TARGET_OR_TEST_SYSTEM": "Moraxella catarrhalis",
    "ENDPOINT_NAME": "MIC",
    "UNIT_SYMBOL": "µg/mL",
    "REPORTED_VALUE": 4
  },
  {
    "COMPOUND_STRUCTURE": "CC[C@H]1OC(=O)[C@@](C)(F)C(=O)[C@H](C)[C@@H](O[C@@H]2O[C@H](C)C[C@H](N(C)C)[C@H]2O)[C@](C)(OC/C=C/c2ccc3c(c2)c(=O)c(C(=O)NC)cn3CC)C[C@@H](C)/C(=N\\OC)[C@H](C)[C@H]2OC(=O)O[C@@]21C",
    "TARGET_OR_TEST_SYSTEM": "Moraxella catarrhalis",
    "ENDPOINT_NAME": "MIC",
    "UNIT_SYMBOL": "µg/mL",
    "REPORTED_VALUE": 0.5
  }
]

--- query ---
### Prompt Entry `CC[C@H]1OC(=O)[C@H](C)[C@@H](O[C@H]2C[C@@](C)(OC)[C@@H](O)[C@H](C)O2)[C@H](C)[C@@H](O[C@@H]2O[C@H](C)C[C@H](N(C)C)[C@H]2O)[C@](C)(O)C[C@@H](C)CN(C)[C@H](C)[C@@H](O)[C@]1(C)O` has what MIC?
### Response 0.031
